assay: phase I plasma pharmacokinetics (non-compartmental, LC-MS/MS); assay type: in vivo, human; conditions: human, plasma, po, 350 mg, multiple oral administration, 350 mg larotinib mesylate, steady state, plasma; read-out: Vz/F,ss, mean (min–max)
Where a name gives a salt, the structure may show the parent alone.
readout-label: Vd/F (L)

INSERT INTO assay_data (molecule, readout_label, quantity_unit, recorded_value) VALUES
  ('COc1cc2ncnc(Nc3ccc(F)c(Cl)c3)c2cc1OCCCN1C[C@@H]2OCCO[C@@H]2C1 [larotinib mesylate]', 'Vd/F', 'L', 641);

###

test: phase I plasma pharmacokinetics (non-compartmental, LC-MS/MS); format: in vivo, human; conditions: human; multiple oral administration, 350 mg larotinib mesylate, steady state, plasma; read-out: AUCτ,ss, mean (min–max)
Where a name gives a salt, the structure may show the parent alone.
readout-label: AUC

INSERT INTO assay_data (compound, recorded_value) VALUES
  ('COc1cc2ncnc(Nc3ccc(F)c(Cl)c3)c2cc1OCCCN1C[C@@H]2OCCO[C@@H]2C1 [larotinib mesylate]', '13200 ng·h/mL');
